- Test System: T1, ECF33_375
- T1 chain: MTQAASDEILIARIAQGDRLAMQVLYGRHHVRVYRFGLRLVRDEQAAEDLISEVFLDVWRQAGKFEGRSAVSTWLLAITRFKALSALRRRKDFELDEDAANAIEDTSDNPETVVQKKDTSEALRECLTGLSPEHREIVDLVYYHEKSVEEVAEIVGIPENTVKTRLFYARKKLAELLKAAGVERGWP
Measured Property: fold repression

Exercise: # get_value(readout='fold repression', item= AS25_1643_cl43 (protein) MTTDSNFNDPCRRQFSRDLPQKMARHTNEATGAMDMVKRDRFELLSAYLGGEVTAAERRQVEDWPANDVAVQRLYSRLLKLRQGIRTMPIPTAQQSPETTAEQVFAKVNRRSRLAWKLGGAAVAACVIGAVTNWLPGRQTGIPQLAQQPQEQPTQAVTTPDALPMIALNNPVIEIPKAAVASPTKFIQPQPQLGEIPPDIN )
Key: 0.709

Exercise: Could you do the same for AS20_992 (protein) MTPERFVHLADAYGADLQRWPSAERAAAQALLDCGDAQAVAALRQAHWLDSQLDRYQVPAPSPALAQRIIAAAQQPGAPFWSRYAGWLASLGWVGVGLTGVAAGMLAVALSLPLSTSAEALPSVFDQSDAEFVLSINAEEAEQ , please?
Key: 1.04

Exercise: Could you do the same for AS03_1198 (protein) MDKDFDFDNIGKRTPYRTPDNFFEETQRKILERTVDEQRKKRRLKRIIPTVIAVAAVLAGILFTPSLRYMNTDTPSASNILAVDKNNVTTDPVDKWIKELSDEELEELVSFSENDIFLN , please?
Key: 0.909
